Molecular target: UniProtKB Q8NET8
Sequence (Q8NET8 1-790): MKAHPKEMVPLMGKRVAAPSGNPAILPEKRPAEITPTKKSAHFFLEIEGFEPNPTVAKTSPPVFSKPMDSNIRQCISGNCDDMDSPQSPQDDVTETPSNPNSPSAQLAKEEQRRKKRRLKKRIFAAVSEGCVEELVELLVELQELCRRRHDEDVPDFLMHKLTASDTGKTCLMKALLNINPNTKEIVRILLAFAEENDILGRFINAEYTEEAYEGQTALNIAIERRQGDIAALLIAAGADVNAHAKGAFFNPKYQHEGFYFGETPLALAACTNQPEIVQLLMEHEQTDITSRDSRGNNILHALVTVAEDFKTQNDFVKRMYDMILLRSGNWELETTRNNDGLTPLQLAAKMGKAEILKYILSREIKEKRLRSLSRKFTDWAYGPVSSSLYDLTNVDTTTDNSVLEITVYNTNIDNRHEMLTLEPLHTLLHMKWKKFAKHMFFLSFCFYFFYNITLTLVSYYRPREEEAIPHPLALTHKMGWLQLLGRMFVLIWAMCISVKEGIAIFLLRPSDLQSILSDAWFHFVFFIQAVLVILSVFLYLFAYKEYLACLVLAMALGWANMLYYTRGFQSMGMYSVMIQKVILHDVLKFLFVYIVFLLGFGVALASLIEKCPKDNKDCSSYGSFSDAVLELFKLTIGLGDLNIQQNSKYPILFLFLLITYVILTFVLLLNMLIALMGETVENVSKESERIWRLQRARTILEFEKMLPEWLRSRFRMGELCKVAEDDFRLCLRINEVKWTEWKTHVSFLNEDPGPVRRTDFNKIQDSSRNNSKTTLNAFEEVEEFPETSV
Experiment: Calcium flux assay (FLIPR TETRA), recombinant HEK293 cells expressing TRPV3, 2-APB response
Settings: 2-APB at its EC80
pIC50: −log10 of the molar value.
Measured pIC50 by item

Sample records with pIC50:
• COc1ncnc(OC)c1C(=O)Nc1nc(C(F)(F)F)c(-c2cnc(C(F)(F)F)nc2)s1 = > 7.30
• COc1ncnc(OC)c1C(=O)Nc1nc(C(F)(F)F)c(C(F)(F)F)s1 = 7.00 to 7.30
• COc1ncnc(OC)c1C(=O)Nc1nc(C(F)(F)F)c(-c2cccc(CC#N)n2)s1 = 6.30 to 7.00
• COc1ncnc(OC)c1C(=O)Nc1nc(C(F)(F)F)c(C(O)c2ccc(F)cn2)s1 (centres unmarked) = 6.30 to 7.00
• CCOC(=O)c1sc(NC(=O)c2c(OC)ncnc2OC)nc1C(F)(F)F = > 7.30

**Query** Given COc1ncnc(OC)c1C(=O)Nc1nc(C(F)(F)F)c([S+]([O-])Cc2ccccc2)s1 (centres unmarked) , state its recorded pIC50.
**Result** < 6.00

**Query** Given COc1ncnc(OC)c1C(=O)Nc1nc(C(F)(F)F)c(C2CCOC2)s1 (centres unmarked) , state its recorded pIC50.
**Result** 6.30 to 7.00

**Query** Given COc1ncnc(OC)c1C(=O)Nc1nc(C(F)(F)F)c(-c2cnco2)s1 , state its recorded pIC50.
**Result** 7.00 to 7.30
